B1: TPR 5TU (parent)
chain: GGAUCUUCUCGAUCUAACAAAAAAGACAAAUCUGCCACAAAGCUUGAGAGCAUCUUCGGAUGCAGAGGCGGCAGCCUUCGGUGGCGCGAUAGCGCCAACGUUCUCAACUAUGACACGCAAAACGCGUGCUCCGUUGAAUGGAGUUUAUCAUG

Variants of: B1
TEST DETAILS: polymerase ribozyme fitness, log enrichment relative to wild type (log ratio); higher = more active; in vitro selection for triplet polymerase activity
Variants at the floor of the assay were thinned out.
ENDPOINT LABEL: polymerase ribozyme fitness (log ratio)
Numbers only.

{"SEQUENCE VARIANT": "C36U C96G", "polymerase ribozyme fitness (log ratio)": -2.56}
{"SEQUENCE VARIANT": "U82A A106U C116U G126U U145C", "polymerase ribozyme fitness (log ratio)": -2.88}

Batch request: polymerase ribozyme fitness (log ratio) for each of the following variants.
1. G59C G86A A89G
2. A39U A41C A98G

[-4, -2.72]

Cited source for all entries: the RNAGym collection of RNA variant scans (doi:10.1073/pnas.2313332121)
